- System: Plasma
- assay overview: Anticoagulant activity in human plasma assessed as concentration required to double prothrombin time
- Format: functional
Labelling: 2PT reported below 4 µM becomes fulfilled; at or above becomes not fulfilled.

>>> category("COc1ccc(-n2nc(Cn3cc(C(N)=O)nn3)c3c2C(=O)N(c2ccc(N4CCCCC4=O)cc2)CC3)cc1")
"fulfilled"
>>> category("COc1ccc(-n2nc(Cn3cc(C#N)nn3)c3c2C(=O)N(c2ccc(N4CCCCC4=O)cc2)CC3)cc1")
"fulfilled"
>>> category("COc1ccc(-n2nc(Cn3cnc(-c4ccc(F)cc4)n3)c3c2C(=O)N(c2ccc(N4CCCCC4=O)cc2)CC3)cc1")
"fulfilled"
>>> category("CCN(CC)Cc1nncn1-c1nn(-c2ccc(OC)cc2)c2c1CCN(c1ccc(N3CCCCC3=O)cc1)C2=O")
"not fulfilled"
>>> category("COc1ccc(-n2nc(-n3cnnc3CN3CCOCC3)c3c2C(=O)N(c2ccc(N4CCCCC4=O)cc2)CC3)cc1")
"fulfilled"
>>> category("COc1ccc(-n2nc(-n3cnnc3)c3c2C(=O)N(c2ccc(N4CCCCC4=O)cc2)CC3)cc1")
"not fulfilled"
>>> category("COc1ccc(-n2nc(C3=NCCN3C)c3c2C(=O)N(c2ccc(N4CCCCC4=O)cc2)CC3)cc1")
"not fulfilled"
>>> category("COc1ccc(-n2nc(C3=NCCN3)c3c2C(=O)N(c2ccc(N4CCCCC4=O)cc2)CC3)cc1")
"not fulfilled"
>>> category("COc1ccc(-n2nc(Cn3cnc(-c4ccncc4)n3)c3c2C(=O)N(c2ccc(N4CCCCC4=O)cc2)CC3)cc1")
"fulfilled"
>>> category("COc1ccc(-n2nc(Cn3cnc(-c4ccccc4)n3)c3c2C(=O)N(c2ccc(N4CCCCC4=O)cc2)CC3)cc1")
"fulfilled"
>>> category("COc1ccc(-n2nc(C(N)=O)c3c2C(=O)N(c2ccc(N4CCCCC4=O)cc2)CC3)cc1")
"fulfilled"
>>> category("COc1ccc(-n2nc(-n3cnnc3C)c3c2C(=O)N(c2ccc(N4CCCCC4=O)cc2)CC3)cc1")
"fulfilled"
>>> category("COc1ccc(-n2nc(Cn3ccnn3)c3c2C(=O)N(c2ccc(N4CCCCC4=O)cc2)CC3)cc1")
"fulfilled"
>>> category("COc1ccc(-n2nc(C3=NCCCN3)c3c2C(=O)N(c2ccc(N4CCCCC4=O)cc2)CC3)cc1")
"not fulfilled"
>>> category("COc1ccc(-n2nc(-n3cnnn3)c3c2C(=O)N(c2ccc(N4CCCCC4=O)cc2)CC3)cc1")
"not fulfilled"
>>> category("COc1ccc(-n2nc(-n3cnnc3CN3CCCC3)c3c2C(=O)N(c2ccc(N4CCCCC4=O)cc2)CC3)cc1")
"not fulfilled"

* * *

- measured target: Coagulation factor X (Homo sapiens, UniProt P00742)
- Sequence (P00742 41-179 limits assumed): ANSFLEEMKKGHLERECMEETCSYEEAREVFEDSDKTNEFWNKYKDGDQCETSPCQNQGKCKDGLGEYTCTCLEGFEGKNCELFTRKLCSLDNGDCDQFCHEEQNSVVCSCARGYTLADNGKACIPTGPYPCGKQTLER
- Sequence (P00742 235-488 limits assumed): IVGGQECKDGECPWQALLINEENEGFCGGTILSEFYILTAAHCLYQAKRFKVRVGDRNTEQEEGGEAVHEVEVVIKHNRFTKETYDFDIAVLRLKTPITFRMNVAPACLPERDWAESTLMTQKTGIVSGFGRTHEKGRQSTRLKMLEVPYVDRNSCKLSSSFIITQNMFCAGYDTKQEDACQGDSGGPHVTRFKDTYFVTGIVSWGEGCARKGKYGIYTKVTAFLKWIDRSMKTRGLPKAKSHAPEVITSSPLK
- assay overview: Inhibition of human F10a assessed as decrease in p-nitroaniline cleavage from pefachrome F10a at 5 uM preincubated for 10 mins followed by substrate addition measured after 20 mins relative to control
outcome measure: inhibition (%)

>>> numeric_value("COc1ccc(-n2nc(Cn3cnc(-c4ccc(F)cc4)n3)c3c2C(=O)N(c2ccc(N4CCCCC4=O)cc2)CC3)cc1")
70.3
>>> numeric_value("COc1ccc(-n2nc(-n3cnnc3CN3CCOCC3)c3c2C(=O)N(c2ccc(N4CCCCC4=O)cc2)CC3)cc1")
99
>>> numeric_value("COc1ccc(-n2nc(-n3cnnc3C)c3c2C(=O)N(c2ccc(N4CCCCC4=O)cc2)CC3)cc1")
65.2
>>> numeric_value("COc1ccc(-c2ncn(Cc3nn(-c4ccc(OC)cc4)c4c3CCN(c3ccc(N5CCCCC5=O)cc3)C4=O)n2)cc1")
76.4
>>> numeric_value("COc1ccc(-n2nc(Cn3cc(C#N)nn3)c3c2C(=O)N(c2ccc(N4CCCCC4=O)cc2)CC3)cc1")
94

* * *

- System: Plasma
- assay overview: Anticoagulant activity in human plasma assessed as concentration required to double activated partial thromboplastin time
- Assay type: functional
In this section we review reported 2aPTT values for a set of molecules.
outcome measure: 2aPTT (µM)

>>> numeric_value("COc1ccc(-n2nc(Cn3cnc(-c4cccnc4)n3)c3c2C(=O)N(c2ccc(N4CCCCC4=O)cc2)CC3)cc1")
4.3
>>> numeric_value("COc1ccc(-n2nc(Cn3nnc4ccccc43)c3c2C(=O)N(c2ccc(N4CCCCC4=O)cc2)CC3)cc1")
31.6
>>> numeric_value("COc1ccc(-n2nc(C(N)=O)c3c2C(=O)N(c2ccc(N4CCCCC4=O)cc2)CC3)cc1")
0.9
>>> numeric_value("COc1ccc(-n2nc(-n3cnnc3C)c3c2C(=O)N(c2ccc(N4CCCCC4=O)cc2)CC3)cc1")
2.8
>>> numeric_value("COc1ccc(-n2nc(C3=NCCCN3)c3c2C(=O)N(c2ccc(N4CCCCC4=O)cc2)CC3)cc1")
13.5
>>> numeric_value("COc1ccc(-n2nc(C3=NCCN3C)c3c2C(=O)N(c2ccc(N4CCCCC4=O)cc2)CC3)cc1")
10.5
